% cells in cell cycle phase: aneuploid for assorted substances
- Tested on: HeLa cells
- methodNotes: Cell cycle assay in HeLa cells
- Assay type: cell-based, human
- conditionInfo: HeLa cells, 100 nM, 48 hours; percentage of cells in phase, average of replicates
In the oligonucleotide strings, read from the 5' end, every base follows the letter of its sugar. An asterisk marks phosphorothioate; unmarked linkages are phosphodiester. Other units and linkages are bracketed, terminal groups are in braces. A string of capitals states the bases alone. e = 2'-O-(2-methoxyethyl) (MOE); [5mC] = 5-methylcytosine; d = 2'-deoxy (DNA)
The reply should be a number in %, with the unit left off.

Prompt: Recorded % cells in cell cycle phase: aneuploid for 327902 (antisense eG*eG*e[5mC]*eT*eG*eT*e[5mC]*eA*eA*eT*eT*e[5mC]*eA*eT*eA*eG*eG*eT*e[5mC]*eA*eG) [compound 327902] , please?
Completion: 11

Prompt: Would you mind doing 328383 (eA*eG*eA*eG*eG*dG*dG*dA*dG*dA*d[5mC]*dG*dA*dG*dA*eG*e[5mC]*eA*e[5mC]*eT) [compound 328383] as well?
Completion: 10

Prompt: Would you mind doing 327905 (antisense e[5mC]*eA*eG*eA*e[5mC]*eT*e[5mC]*e[5mC]*eG*eG*eT*eG*eG*eA*eA*eT*eG*eA*eA*eG*eG*eA) [compound 327905] as well?
Completion: 14

Let us examine a further case.
Prompt: Recorded % cells in cell cycle phase: aneuploid for 328403 (antisense eA*eG*eG*e[5mC]*e[5mC]*dT*dA*dT*dT*d[5mC]*d[5mC]*dT*dG*dT*dA*eG*e[5mC]*eA*eA*eA) [compound 328403] , please?
Completion: 11
